Reference source for all entries: patent US11230527B2

assay: Solubility estimation; type: physicochemical; conditions: EtOAc, organic solvent or mixture, thermodynamic from solid, EtOAc; read-out: Solubility
observable: solubility

INSERT INTO results (molecule, observable, experimental_value) VALUES
  ('O=C(Cc1ccc(-c2ccc(OCCN3CCOCC3)cc2)cn1)NCc1ccccc1 [Form C]', 'solubility', '2370 to 2630 µg/mL');

====

test: Solubility estimation; assay type: physicochemical; conditions: MIBK, organic solvent or mixture, thermodynamic from solid, MIBK; read-out: Solubility
observable: solubility

INSERT INTO measurements (compound, observable, experimental_value) VALUES
  ('O=C(Cc1ccc(-c2ccc(OCCN3CCOCC3)cc2)cn1)NCc1ccccc1 [Form C]', 'solubility', '1.61 to 1.76 mg/mL');

====

Assay: Solubility estimation
Assay type: physicochemical
Conditions: IPAc, organic solvent or mixture, thermodynamic from solid, IPAc; read-out: Solubility
Experimental: Solubility of the solid forms of the present application in a variety of solvents is measured. […] The approximate solubility is then calculated. Solubility of the solid forms of the present application in a variety of solvents was measured according to the following procedures. […] The volumes of solvent (V1 and V2) were recorded, and approximate solubility was calculated.
observable: solubility

INSERT INTO results (compound, experimental_value) VALUES
  ('O=C(Cc1ccc(-c2ccc(OCCN3CCOCC3)cc2)cn1)NCc1ccccc1 [Form C]', '1080 to 1150 µg/mL');

====

experiment: Solubility estimation; assay type: physicochemical; details: 1,4-Dioxane, organic solvent or mixture, thermodynamic from solid, 1,4-Dioxane; read-out: Solubility
observable: solubility

INSERT INTO results (molecule, experimental_value) VALUES
  ('O=C(Cc1ccc(-c2ccc(OCCN3CCOCC3)cc2)cn1)NCc1ccccc1 [Form C]', '12.6 to 25.1 mg/mL');

====

test: Solubility estimation; type: physicochemical; details: DCM, organic solvent or mixture, thermodynamic from solid, DCM; read-out: Solubility
observable: solubility

INSERT INTO measurements (molecule, experimental_value) VALUES
  ('O=C(Cc1ccc(-c2ccc(OCCN3CCOCC3)cc2)cn1)NCc1ccccc1 [Form C]', '1.33 to 1.44 mg/mL');

====

assay: Solubility estimation; type: physicochemical; conditions: water, thermodynamic from solid, aqueous solution (water), room temperature and when heated to 50° C.; read-out: Solubility
observable: solubility

INSERT INTO assay_data (molecule, observable, experimental_value) VALUES
  ('O=C(Cc1ccc(-c2ccc(OCCN3CCOCC3)cc2)cn1)NCc1ccccc1 [Form C]', 'solubility', '< 1000 µg/mL');

====

experiment: Solubility estimation; assay type: physicochemical; details: Acetone, organic solvent or mixture, thermodynamic from solid, Acetone; read-out: Solubility
observable: solubility

INSERT INTO assay_data (compound, observable, experimental_value) VALUES
  ('O=C(Cc1ccc(-c2ccc(OCCN3CCOCC3)cc2)cn1)NCc1ccccc1 [Form C]', 'solubility', '5690 to 8590 µg/mL');

====

test: Solubility estimation; type: physicochemical; conditions: MeOH, organic solvent or mixture, thermodynamic from solid, MeOH; read-out: Solubility
observable: solubility

INSERT INTO results (compound, experimental_value) VALUES
  ('O=C(Cc1ccc(-c2ccc(OCCN3CCOCC3)cc2)cn1)NCc1ccccc1 [Form C]', '9.58 to 19.2 mg/mL');
